- System: Prothrombin (Homo sapiens) (UniProt P00734)
- Protocol text: Inhibitory activity against human thrombin
Measured K ass, listed per entry.

INSERT INTO results (smiles_notation, readout_type, result) VALUES
  ('COc1cc(Cn2c(-c3ccc(OCCN4CCCC4)cc3)cc3cnccc32)ccc1C(=O)N1CCCC1', 'K ass', '8.37e+07 l M-1'),
  ('COc1cc(Cn2c(-c3ccc(OCCCCO)cc3)cc3ccccc32)ccc1CN1CCCC1', 'K ass', '3.37e+07 l M-1'),
  ('COc1cc(Cc2c(-c3ccc(OCCCC(=O)O)cc3)sc3ccccc23)ccc1CN1CCCC1', 'K ass', '3.91e+06 l M-1'),
  ('COc1cc(Cn2c(-c3ccc(OCCn4cccn4)cc3)nc3ccccc32)ccc1CN1CCCC1', 'K ass', '1.46e+06 l M-1');

// below: K ass requested for another compound
Q: Give the value of K ass reported for the following: c1ccc2c(Cc3ccc(OCCN4CCCC4)cc3)c(-c3ccc(OCCN4CCCC4)cc3)oc2c1
Ans: 974000 l M-1
